systemName: GSK3b (GST-full length GSK3b) (Homo sapiens (Human))
assay: GSK3b TR-FRET kinase assay
Format: biochemical
conditionSummary: 1 nM GSK3b, 2 μM ATP, 30 minute preincubation; read-out: GSK3-B TR-FRET BIOCHEMICAL (TR-FRET); IC50

- molecule: "CCn1ccc(S(=O)(=O)N2CCC3(CC2)C2=C(CC(C)(C)NC2=O)Nc2n[nH]cc23)n1"
  systemName: "GSK3b (GST-full length GSK3b) (Homo sapiens (Human))"
  IC50: "100 to 1000 nM"
- molecule: "CCC1(c2ccccc2)C2=C(CS(=O)(=O)CC2=O)Nc2n[nH]cc21 (stereo not shown)"
  systemName: "GSK3b (GST-full length GSK3b) (Homo sapiens (Human))"
  IC50: "> 5000 nM"
- molecule: "Cn1ccc(S(=O)(=O)N2CC[C@]3(C2)C2=C(CC(C)(C)CC2=O)Nc2n[nH]cc23)n1"
  systemName: "GSK3b (GST-full length GSK3b) (Homo sapiens (Human))"
  IC50: "≤ 100 nM"
- molecule: "CC1(C)CC(=O)C2=C(C1)Nc1n[nH]cc1[C@]21C[C@@]2(CCN(CC(F)F)C2)C1"
  systemName: "GSK3b (GST-full length GSK3b) (Homo sapiens (Human))"
  IC50: "100 to 1000 nM"
- molecule: "CC[C@@]1(c2cccc(C(F)(F)F)c2)C2=C(CC(C)(C)NC2=O)Nc2n[nH]cc21"
  systemName: "GSK3b (GST-full length GSK3b) (Homo sapiens (Human))"
  IC50: "> 5000 nM"
- molecule: "Cc1ccccc1C(=O)N1CC2(C1)CC1(CO2)C2=C(CC(C)(C)CC2=O)Nc2n[nH]cc21 (stereo not shown)"
  systemName: "GSK3b (GST-full length GSK3b) (Homo sapiens (Human))"
  IC50: "100 to 1000 nM"
- molecule: "CC[C@@]1(c2cccc(C(F)(F)F)c2)C2=C(Nc3n[nH]cc31)[C@H](C)CNC2=O"
  systemName: "GSK3b (GST-full length GSK3b) (Homo sapiens (Human))"
  IC50: "100 to 1000 nM"

---

// values below are reported IC50
systemName: GSK3b (GST-full length GSK3b) (Homo sapiens (Human), UniProt P49841)
Sequence (P49841 whole entry): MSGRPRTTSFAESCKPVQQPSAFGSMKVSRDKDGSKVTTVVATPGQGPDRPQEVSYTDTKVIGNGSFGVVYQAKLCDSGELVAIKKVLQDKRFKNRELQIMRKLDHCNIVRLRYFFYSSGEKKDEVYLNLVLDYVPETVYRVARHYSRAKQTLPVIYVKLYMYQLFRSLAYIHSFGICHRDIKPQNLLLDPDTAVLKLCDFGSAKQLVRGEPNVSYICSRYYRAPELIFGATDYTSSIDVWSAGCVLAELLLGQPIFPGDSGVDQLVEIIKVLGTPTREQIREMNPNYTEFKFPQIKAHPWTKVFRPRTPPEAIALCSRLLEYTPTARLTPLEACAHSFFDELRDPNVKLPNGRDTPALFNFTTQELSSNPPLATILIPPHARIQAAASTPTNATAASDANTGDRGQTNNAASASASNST
assay: GSK3b TR-FRET kinase assay
Format: biochemical
conditionSummary: 1 nM GSK3b, 2 μM ATP, 30 minute preincubation; read-out: GSK3-B TR-FRET BIOCHEMICAL (TR-FRET); IC50
valueKind: IC50

- compound: "CC[C@]1(c2cccc(S(C)(=O)=O)c2)C2=C(CC(C)(C)NC2=O)Nc2n[nH]cc21 [Compound 945604]"
  systemName: "GSK3b (GST-full length GSK3b) (Homo sapiens (Human), UniProt P49841)"
  recordedMeasurement: "≤ 100 nM"
- compound: "CCC1(c2cccc(-c3cc(C)nn3C)c2)C2=C(CC(C)(C)NC2=O)Nc2n[nH]cc21 (stereo not shown) [Compound 943966]"
  systemName: "GSK3b (GST-full length GSK3b) (Homo sapiens (Human), UniProt P49841)"
  recordedMeasurement: "100 to 1000 nM"
- compound: "CC1(C)CC2=C(C(=O)N1)C1(CCN(S(C)(=O)=O)CC1)c1c[nH]nc1N2 [Compound 943959]"
  systemName: "GSK3b (GST-full length GSK3b) (Homo sapiens (Human), UniProt P49841)"
  recordedMeasurement: "100 to 1000 nM"
- compound: "CC1(C)CC(=O)C2=C(C1)Nc1n[nH]cc1[C@@]21CCOC2(CCC2)C1 [Compound 897755]"
  systemName: "GSK3b (GST-full length GSK3b) (Homo sapiens (Human), UniProt P49841)"
  recordedMeasurement: "1000 to 5000 nM"
- compound: "CC1(C)CC(=O)C2=C(C1)Nc1n[nH]cc1[C@]21CCN(S(=O)(=O)c2ccccc2)C1 [Compound 951787]"
  systemName: "GSK3b (GST-full length GSK3b) (Homo sapiens (Human), UniProt P49841)"
  recordedMeasurement: "≤ 100 nM"
- compound: "CC[C@]1(c2cccc(-c3cnn(C)c3)c2)C2=C(CC(C)(C)NC2=O)Nc2n[nH]c(C)c21 [Compound 945611]"
  systemName: "GSK3b (GST-full length GSK3b) (Homo sapiens (Human), UniProt P49841)"
  recordedMeasurement: "> 5000 nM"
- compound: "COc1ccc(S(=O)(=O)N2CCC3(CC2)C2=C(CC(C)(C)CC2=O)Nc2n[nH]cc23)c(F)c1 [Compound 947255]"
  systemName: "GSK3b (GST-full length GSK3b) (Homo sapiens (Human), UniProt P49841)"
  recordedMeasurement: "≤ 100 nM"

---

systemName: GSK3b (GST-full length GSK3b) (Homo sapiens (Human))
assay: GSK3b TR-FRET kinase assay
Format: biochemical
conditionSummary: 1 nM GSK3b, 2 μM ATP, 30 minute preincubation, Table 16; read-out: GSK3-B TR-FRET BIOCHEMICAL (TR-FRET); IC50

- compound: "CC[C@]1(c2cccc(-c3c(C#N)c(C)nn3C)c2)C2=C(CC(C)(C)NC2=O)Nc2n[nH]cc21 [Compound 951844]"
  IC50: "100 to 1000 nM"
- compound: "CCC1(c2cccc(N(Cc3ccccc3)C(C)=O)c2)C2=C(CC(C)(C)CC2=O)Nc2n[nH]cc21 (stereo not shown) [Compound 884110]"
  IC50: "≤ 100 nM"
- compound: "CCC1(c2cccc(N3CCCC3C)c2)C2=C(CC(C)(C)CC2=O)Nc2n[nH]cc21 (stereo not shown) [Compound 885204]"
  IC50: "100 to 1000 nM"
- compound: "CC[C@]1(c2cccc(-c3c(C)cnn3C)c2)C2=C(CC(C)(C)NC2=O)Nc2n[nH]cc21 [Compound 952021]"
  IC50: "≤ 100 nM"
- compound: "CCC1(c2cccc(N(C(C)=O)C(C)C)c2)C2=C(CC(C)(C)CC2=O)Nc2n[nH]cc21 (stereo not shown) [Compound 893305]"
  IC50: "≤ 100 nM"
- compound: "CCC1(c2cccc(N3CCC3(C)C)c2)C2=C(CC(C)(C)CC2=O)Nc2n[nH]cc21 (stereo not shown) [Compound 913141]"
  IC50: "1000 to 5000 nM"
- compound: "CCC1(c2cccc(-c3cc(OC)ncc3F)c2)C2=C(CC(C)(C)CC2=O)Nc2n[nH]cc21 (stereo not shown) [Compound 932630]"
  IC50: "≤ 100 nM"

---

systemName: GSK3b (GST-full length GSK3b) (Homo sapiens (Human))
assay: GSK3b TR-FRET kinase assay
Type: biochemical
conditionSummary: 1 nM GSK3b, 2 μM ATP, 30 minute preincubation; geometric mean; read-out: GSK3-B TR-FRET BIOCHEMICAL (TR-FRET); GMean; IC50
Description: TR-FRET Assay: The assay was performed in a white, 384 well, low volume, flat bottom plate (Grenier). After a 30 minute preincubation in assay buffer with the indicated concentration of compound, the kinase activity was initiated by the addition of the substrates. […] After 60 min at room temperature the plate was read on Envision plate reader using Ex: 340 nm, Em: 615 nm and […]. The normalized 665/615 Signal ratio versus log compound concentration was analyzed by XLFIT to yield IC50 values.

- compound: "CC[C@@]1(c2cccc(-c3ccncc3OC3CC3)c2)C2=C(CC(C)(C)NC2=O)Nc2n[nH]cc21"
  IC50: "> 5 µM"
- compound: "CC[C@@]1(c2ccccc2)C2=C(CC(C)(C)CC2=O)Nc2n[nH]c(Br)c21"
  IC50: "≤ 0.1 µM"
- compound: "CC1(C)CC(=O)C2=C(C1)Nc1n[nH]cc1[C@@]2(C)c1cccc(-c2ccccc2)c1"
  IC50: "> 5 µM"
- compound: "CCC1(c2cccc(-c3ccnc4cc(Cl)c(C)cc34)c2)C2=C(CC(C)(C)NC2=O)Nc2n[nH]cc21 (stereo not drawn)"
  IC50: "> 5 µM"
- compound: "CCC1(c2cccc(N3CCN(C)CC3)c2)C2=C(CC(C)(C)CC2=O)Nc2n[nH]cc21 (stereo not drawn)"
  IC50: "> 5 µM"
- compound: "CCC1(c2ccccc2)C2=C(CCCC2=O)Nc2n[nH]cc21 (stereo not drawn)"
  IC50: "> 5 µM"
- compound: "CCC1(c2cccc(N3CCOCC3)c2)C2=C(CC(C)(C)CC2=O)Nc2n[nH]c(C)c21 (stereo not drawn)"
  IC50: "≤ 0.1 µM"
- compound: "CCC1(c2cccc(-n3ccnc3)c2)C2=C(CC(C)(C)CC2=O)Nc2n[nH]cc21 (stereo not drawn) [Compound 874531]"
  IC50: "≤ 0.1 µM"
- compound: "CC[C@@]1(c2ccccc2)C2=C(C[C@@H](C)CC2=O)Nc2n[nH]cc21"
  IC50: "0.1 to 1 µM"
- compound: "CCC1(c2cccc(Br)c2)C2=C(CC(C)CC2=O)Nc2n[nH]c(C(F)(F)F)c21 (stereo not drawn) [Compound 828849]"
  IC50: "0.1 to 1 µM"
- compound: "CC1(C)CC(=O)C2=C(C1)Nc1n[nH]cc1C2(C)c1cc(F)cc(F)c1 (stereo not drawn)"
  IC50: "> 5 µM"
- compound: "CC[C@@]1(c2ccccc2)C2=C(C[C@@](C)(C(F)(F)F)CC2=O)Nc2n[nH]cc21"
  IC50: "> 5 µM"
- compound: "CC[C@]1(c2cccc(N3CCCC3)c2)C2=C(CC(C)(C)CC2=O)Nc2n[nH]c(C(F)(F)F)c21"
  IC50: "≤ 0.1 µM"
- compound: "CC[C@@]1(c2cccc(N(C)c3ccccn3)c2)C2=C(CC(C)(C)CC2=O)Nc2n[nH]cc21"
  IC50: "> 5 µM"
- compound: "CC[C@]1(c2cccc(C)c2)C2=C(CC(C)(C)CC2=O)Nc2n[nH]cc21"
  IC50: "> 5 µM"

Cited source for all entries: patent US20250313563A1
